- protocol_description: ATG_CMV_CIS: Attagene CIS-FACTORIAL HepG2 Assay for human CMV (Internal Marker) (AID 2282928);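 note: endpoint acts as a background internal control marker rather than a target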
- test_context: HepG2 CMV promoter reporter, transcription factor profiling; actives raise or lower the signal
Active and inactive are the calls of the source. Rule for the calls: active = hit-call score of the fitted dose curve at least 0.9, where 1 is the maximum; inactive = score below 0.9.
Outcomes: active, inactive

compound=CCCOCCC assigned_class=inactive
compound=CN(C)Cc1cc(C(C)(C)C)c(O)c(C(C)(C)C)c1 assigned_class=inactive
compound=CCC(C)=NO assigned_class=inactive
compound=CN(C)CCCN1c2ccccc2CCc2ccc(Cl)cc21 assigned_class=inactive
compound=O=S(=O)(O)c1cccc2ccccc12 assigned_class=inactive
compound=OCCOCCOCCOCCOCCO assigned_class=inactive
compound=CCCCCC[C@@H](O)C/C=C\CCCCCCCC(=O)O assigned_class=inactive
compound=CCOC(=O)CC(=O)OCC assigned_class=inactive
compound="C=C(C)C(=O)OCC1CCCO1 (stereo unspecified)" assigned_class=inactive
compound="CCCCCCCCCC/C=C/C1CC(=O)OC1=O (stereo unspecified)" assigned_class=inactive
compound="CCCCCCC1CCC(=O)O1 (stereo unspecified)" assigned_class=inactive
compound="CC1=NN(c2cc(Cl)c(S(=O)(=O)O)cc2Cl)C(=O)C1N=Nc1ccc(S(=O)(=O)O)cc1 (stereo unspecified)" assigned_class=inactive
compound=CN1CCCC1 assigned_class=inactive
compound=Clc1ccccn1 assigned_class=inactive
compound=CCCCCCCCCCCCCCCCCC[N+](C)(C)C assigned_class=inactive
compound="C=CC(C)(CCC=C(C)C)OC(=O)c1ccccc1 (stereo unspecified)" assigned_class=active
compound=CC(C)=CCOC(=O)c1ccccc1 assigned_class=inactive
compound=NC(=O)c1ccc([N+](=O)[O-])cc1Cl assigned_class=inactive
compound=CCCCOC(=O)COc1ccc(Cl)cc1Cl assigned_class=inactive
compound=CC/C=C/CCO assigned_class=inactive
compound=CCCC(=O)OC/C=C(\C)CCC=C(C)C assigned_class=inactive

----------
- experimental_system: Cellular tumor antigen p53 (Homo sapiens)
- protocol_description: TOX21_p53_BLA_p3_ratio: Tox21 HCT-116 p53 Agonism Beta-lactamase Assay, Ratio, Phase 3 (AID 2283596)
Inconclusive results are not listed. Activity calls are given as the source filed them. Rule for the calls: active = hit-call score of the fitted dose curve at least 0.9, where 1 is the maximum; inconclusive = response in the unintended direction; inactive = score below 0.9.
Labels: label 1 for active, label 0 for inactive

compound="CC(=O)OC1CCC(C(C)(C)C)CC1 (stereo not given)" assigned_class="label 0"
compound=Nc1nnc(-c2cccc(Cl)c2Cl)c(N)n1 assigned_class="label 0"
compound=COc1ccc2cc1Oc1cc3c(cc1OC)CC[N+](C)(C)[C@H]3Cc1ccc(cc1)Oc1c(OC)c(OC)cc3c1[C@@H](C2)[N+](C)(C)CC3 assigned_class="label 0"
compound=CC(=O)OC[C@H]1O[C@@H](n2ncc(=O)[nH]c2=O)[C@H](OC(C)=O)[C@@H]1OC(C)=O assigned_class="label 1"
compound=CC(C)Oc1ccc2c(=O)c(-c3ccccc3)coc2c1 assigned_class="label 0"
compound="O=C1OC(O)C(C(Cl)Cl)=C1Cl (stereo not given)" assigned_class="label 1"
compound=C#C[C@]1(OC(C)=O)CC[C@H]2[C@@H]3CCC4=C/C(=N/O)CC[C@@H]4[C@H]3CC[C@@]21CC assigned_class="label 1"
compound=CC(=O)N[C@@H](CC(C)C)C(=O)O assigned_class="label 0"
compound=CC(C)(C)C(=O)OCOC(=O)[C@@H]1N2C(=O)[C@@H](N=CN3CCCCCC3)[C@H]2SC1(C)C assigned_class="label 0"
compound=CC1(C)S[C@@H]2[C@H](NC(=O)[C@H](N)c3ccccc3)C(=O)N2[C@H]1C(=O)O assigned_class="label 0"
compound=O=C1NCN(c2ccccc2)C12CCN(CCCC(c1ccc(F)cc1)c1ccc(F)cc1)CC2 assigned_class="label 1"
compound=NC(N)=NCc1cccc(I)c1 assigned_class="label 0"
compound=CO[C@H]1C[C@H](O[C@H]2[C@H](C)O[C@@H](O[C@@H]3/C(C)=C/C[C@@H]4C[C@@H](C[C@]5(C=C[C@H](C)[C@@H](C6CCCCC6)O5)O4)OC(=O)[C@@H]4C=C(C)[C@@H](O)[C@H]5OC/C(=C\C=C\[C@@H]3C)[C@]54O)C[C@@H]2OC)O[C@@H](C)[C@@H]1O assigned_class="label 1"
compound=Cc1cc(C)c(NC(=O)C[C@H](CC(=O)O)c2cccc3ccccc23)c(C(=O)N2CCC3(CCCC3)CC2)c1 assigned_class="label 0"
compound="C[N+]1(C)[C@@H]2CC(OC(=O)C(O)(c3cccs3)c3cccs3)C[C@H]1[C@@H]1O[C@@H]12 (stereo not given in full)" assigned_class="label 0"
